Property: pIC50; scope: individual compounds
- TESTED ON: human TLR9 (Homo sapiens (Human))
- Sequence (Q9NR96 26-1032): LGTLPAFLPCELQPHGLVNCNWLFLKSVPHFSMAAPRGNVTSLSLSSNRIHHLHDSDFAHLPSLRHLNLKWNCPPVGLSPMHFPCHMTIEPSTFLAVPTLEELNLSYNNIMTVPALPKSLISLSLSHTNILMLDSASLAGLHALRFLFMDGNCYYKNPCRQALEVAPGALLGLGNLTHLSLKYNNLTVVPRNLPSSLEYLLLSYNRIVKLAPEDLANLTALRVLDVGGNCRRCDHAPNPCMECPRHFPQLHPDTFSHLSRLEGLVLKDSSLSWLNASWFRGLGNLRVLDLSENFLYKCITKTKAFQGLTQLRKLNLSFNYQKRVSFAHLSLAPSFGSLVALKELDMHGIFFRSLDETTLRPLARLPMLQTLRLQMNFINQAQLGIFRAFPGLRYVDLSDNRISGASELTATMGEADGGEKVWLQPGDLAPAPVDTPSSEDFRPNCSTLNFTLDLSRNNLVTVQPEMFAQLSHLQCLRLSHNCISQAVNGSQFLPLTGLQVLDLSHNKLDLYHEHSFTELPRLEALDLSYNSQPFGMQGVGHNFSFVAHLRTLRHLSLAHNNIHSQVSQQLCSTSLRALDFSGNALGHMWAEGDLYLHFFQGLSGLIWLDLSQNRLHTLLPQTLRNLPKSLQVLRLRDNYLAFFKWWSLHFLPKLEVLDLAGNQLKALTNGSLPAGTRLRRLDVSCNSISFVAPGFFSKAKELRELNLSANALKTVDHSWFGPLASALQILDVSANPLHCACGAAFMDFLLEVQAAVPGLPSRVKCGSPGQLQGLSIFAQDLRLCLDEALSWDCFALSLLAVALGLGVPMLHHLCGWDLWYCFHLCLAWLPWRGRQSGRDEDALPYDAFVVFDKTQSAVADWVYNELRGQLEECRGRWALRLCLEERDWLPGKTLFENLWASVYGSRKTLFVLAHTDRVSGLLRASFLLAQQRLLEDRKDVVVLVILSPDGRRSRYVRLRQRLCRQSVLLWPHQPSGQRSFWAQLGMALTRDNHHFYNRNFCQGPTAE
- PROCEDURE SUMMARY: TLR9 inhibition reporter assay (HEK-Blue SEAP);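 also: SEAP driven by an IFN-β minimal promoter with NF-κB and AP-1 sites, read after 22 h, compounds dosed 0.05 nM–50 µM, inhibition scaled between agonist plus DMSO and reference-inhibitor wells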
- MEASUREMENT CONDITIONS: read-out: TLR9 IC50; HEK-Blue cells overexpressing human TLR9, SEAP reporter, ODN2006 5 nM
pIC50: −log10 of the molar value.

>  <COMPOUND>
Cc1c(-c2[nH]c3ccc(C4CN(CCS(C)(=O)=O)C4)nc3c2C(C)C)cn2ncnc2c1C [Example 653]

>  <MODIFIER SIGN>
=

>  <pIC50>
4.88

$$$$
>  <COMPOUND>
Cc1c(-c2[nH]c3ccc(C4CC(N(C)CC(C)(C)O)C4)nc3c2C(C)C)cn2ncnc2c1C (stereo not shown) [Example 641]

>  <MODIFIER SIGN>
=

>  <pIC50>
5.48

$$$$
>  <COMPOUND>
Cc1c(-c2[nH]c3ccc(C4CCC(N(C)Cc5c[nH]nn5)CC4)nc3c2C(C)C)cn2ncnc2c1C (stereo not shown) [Example 397]

>  <MODIFIER SIGN>
=

>  <pIC50>
5.62

$$$$
>  <COMPOUND>
Cc1c(-c2[nH]c3ccc(C4CCC(N(C)CC(=O)N(C)C)CC4)nc3c2C(C)C)cn2ncnc2c1C (stereo not shown) [Example 408]

>  <MODIFIER SIGN>
=

>  <pIC50>
5.19

$$$$
>  <COMPOUND>
COc1ncc(CN(C)C2CCC(c3ccc4[nH]c(-c5cn6ncnc6c(C)c5C)c(C(C)C)c4n3)CC2)cn1 (stereo not shown) [Example 405]

>  <MODIFIER SIGN>
=

>  <pIC50>
5.85

$$$$
>  <COMPOUND>
Cc1c(-c2[nH]c3ccc(C4CCC(N(C)CCS(C)(=O)=O)CC4)nc3c2C(C)C)cn2ncnc2c1C (stereo not shown) [Example 427]

>  <MODIFIER SIGN>
=

>  <pIC50>
5.31

$$$$
>  <COMPOUND>
Cc1c(-c2[nH]c3ccc(C4CCC(N(CC#N)C5COC5)CC4)nc3c2C(C)C)cn2ncnc2c1C (stereo not shown) [Example 441]

>  <MODIFIER SIGN>
=

>  <pIC50>
5.78

$$$$
>  <COMPOUND>
Cc1cc(-c2[nH]c3ccc(C4CN(C5COC5)CCO4)nc3c2C(C)C)cn(C)c1=O (stereo not shown) [Example 667]

>  <MODIFIER SIGN>
<

>  <pIC50>
4.30

$$$$
>  <COMPOUND>
COc1cc(-c2[nH]c3ccc(C4CCC(NC5CCOC(C)(C)C5)C4)nc3c2C(C)C)cn2ncnc12 (stereo not shown) [Example 729]

>  <MODIFIER SIGN>
=

>  <pIC50>
5.71

$$$$
>  <COMPOUND>
Cc1c(-c2[nH]c3ccc(N4[C@@H]5CC[C@H]4CN(CCS(C)(=O)=O)C5)nc3c2C(C)C)cn2ncnc2c1C [Example 748]

>  <MODIFIER SIGN>
=

>  <pIC50>
4.42

$$$$
>  <COMPOUND>
Cc1c(-c2[nH]c3ccc(N4C[C@H]5C[C@@H](C4)N5C(C)C)nc3c2C(C)C)cn2ncnc2c1C [Example 755]

>  <MODIFIER SIGN>
=

>  <pIC50>
5.43

$$$$
>  <COMPOUND>
COCCN(C1CCC(c2ccc3[nH]c(-c4cn5ncnc5c(C)c4C)c(C(C)C)c3n2)CC1)C1(CO)COC1 (stereo not shown) [Example 499]

>  <MODIFIER SIGN>
<

>  <pIC50>
4.30

$$$$
>  <COMPOUND>
Cc1c(-c2[nH]c3cc(F)c(C4CCC(N)CC4)nc3c2C(C)C)cn2ncnc2c1C (stereo not shown) [Example 506]

>  <MODIFIER SIGN>
=

>  <pIC50>
5.50

$$$$
>  <COMPOUND>
Cc1cc2[nH]c(-c3cn4ncnc4c(C)c3C)c(C(C)C)c2nc1C1CCC(NC2COC2)CC1 (stereo not shown) [Example 502]

>  <MODIFIER SIGN>
=

>  <pIC50>
5.54

$$$$
>  <COMPOUND>
COc1cc(-c2[nH]c3ccc(C4CN(Cc5c[nH]nn5)C4)nc3c2C(C)C)cn2ncnc12 [Example 651]

>  <MODIFIER SIGN>
=

>  <pIC50>
6.16

$$$$
>  <COMPOUND>
COc1cc(-c2[nH]c3ccc(CCC4CN(CC5(C)COC5)C4)nc3c2C(C)C)cn2ncnc12 [Example 706]

>  <MODIFIER SIGN>
=

>  <pIC50>
5.99

$$$$
>  <COMPOUND>
Cc1cc(-c2[nH]c3ccc(C4CCN(CC#N)CC4)nc3c2C(C)C)cn2ncnc12 [Example 553]

>  <MODIFIER SIGN>
=

>  <pIC50>
6.27

$$$$
>  <COMPOUND>
Cc1c(-c2[nH]c3ccc(C4CCC(N(C)CC(=O)N(C)C)CC4)nc3c2C(C)C)cn2ncnc2c1C (stereo not shown) [Example 410]

>  <MODIFIER SIGN>
=

>  <pIC50>
5.31

$$$$
>  <COMPOUND>
Cc1c(-c2[nH]c3ccc(C4CCC(NC5CC5)CC4)nc3c2C(C)C)cn2ncnc2c1C (stereo not shown) [Example 421]

>  <MODIFIER SIGN>
=

>  <pIC50>
5.69

$$$$
>  <COMPOUND>
Cc1c(-c2[nH]c3ccc(N4C[C@H]5C[C@@H](C4)N5C(=O)CN(C)C)nc3c2C(C)C)cn2ncnc2c1C [Example 754]

>  <MODIFIER SIGN>
=

>  <pIC50>
5.27

$$$$
>  <COMPOUND>
CNC(=O)CN(C1CCC(c2ccc3[nH]c(-c4cn5ncnc5c(C)c4C)c(C(C)C)c3n2)CC1)C1COC1 (stereo not shown) [Example 449]

>  <MODIFIER SIGN>
=

>  <pIC50>
4.75

$$$$
>  <COMPOUND>
Cc1c(-c2[nH]c3ccc(N4C[C@H](C)N(C(C)C)C[C@@H]4C)nc3c2C(C)C)cn2ncnc2c1C [Example 793]

>  <MODIFIER SIGN>
=

>  <pIC50>
5.11

$$$$
>  <COMPOUND>
Cc1c(-c2[nH]c3ccc(C4CCC(N(C)C5COC5)CC4)nc3c2C(C)C)cn2ncnc2c1C (single isomer, unassigned) [Example 424]

>  <MODIFIER SIGN>
=

>  <pIC50>
5.82

$$$$
>  <COMPOUND>
COc1cc(-c2[nH]c3ccc(CCC4CNC4)nc3c2C(C)C)cn2ncnc12 [Example 697]

>  <MODIFIER SIGN>
=

>  <pIC50>
6.04

$$$$
>  <COMPOUND>
COc1cc(-c2[nH]c3ccc(C4CNCCO4)nc3c2C(C)C)cn2ncnc12 (stereo not shown) [Example 666]

>  <MODIFIER SIGN>
=

>  <pIC50>
5.18

$$$$

meta.source: patent US10544143B2
